Values from paper PMC7158045

tgt: ZmDRIK1-K217-S514 (Zea mays)
Construct: kinase domain, K217-S514
Sequence (C0P4K9 1-514): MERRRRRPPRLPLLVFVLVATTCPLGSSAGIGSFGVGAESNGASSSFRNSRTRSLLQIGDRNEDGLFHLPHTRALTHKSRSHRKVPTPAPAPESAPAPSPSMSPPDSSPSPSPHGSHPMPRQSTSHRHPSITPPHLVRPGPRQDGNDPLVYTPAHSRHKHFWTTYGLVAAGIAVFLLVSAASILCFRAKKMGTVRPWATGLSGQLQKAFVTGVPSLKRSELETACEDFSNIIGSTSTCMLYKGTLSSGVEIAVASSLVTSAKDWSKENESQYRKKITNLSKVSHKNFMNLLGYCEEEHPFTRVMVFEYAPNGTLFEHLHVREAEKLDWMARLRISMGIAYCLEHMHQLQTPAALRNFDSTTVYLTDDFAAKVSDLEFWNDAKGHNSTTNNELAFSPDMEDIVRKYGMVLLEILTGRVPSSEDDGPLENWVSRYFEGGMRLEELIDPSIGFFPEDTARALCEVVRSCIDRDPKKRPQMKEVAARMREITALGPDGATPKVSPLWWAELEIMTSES
assay.overview: biochemical
run.conditions: read-out: dTm B, sheet ZmDRIK1-K217-S514;; DSF, Boltzmann fit, 0.1% DMSO
property.label: ΔTm at 10 µM (°C)
Respond numerically; units are °C and should not be typed.

## Input Checklist item: ΔTm at 10 µM tested on ZmDRIK1-K217-S514 (Zea mays), entry `CC(=O)Nc1cccc(-n2c(=O)n(C3CC3)c(=O)c3c(Nc4ccc(I)cc4F)n(C)c(=O)c(C)c32)c1` , value?
## Output -0.496

## Input Checklist item: ΔTm at 10 µM tested on ZmDRIK1-K217-S514 (Zea mays), entry COc1cc(Nc2ncc(F)c(Nc3ccc4c(n3)N(COP(=O)(O)O)C(=O)C(C)(C)O4)n2)cc(OC)c1OC [Fostamatinib (R788)] , value?
## Output -0.314

## Input Checklist item: ΔTm at 10 µM tested on ZmDRIK1-K217-S514 (Zea mays), entry `O=c1ncn2nc(Sc3ccc(F)cc3F)ccc2c1-c1c(Cl)cccc1Cl` , value?
## Output -0.414

----------
tgt: ZmDRIK1-K217-P492 (Zea mays, UniProt C0P4K9)
Construct: kinase domain, K217-P492
assay.overview: biochemical
run.conditions: read-out: dTm B, sheet ZmDRIK1-K217-P492;; DSF, Boltzmann fit, 0.1% DMSO
Threshold -0.9 °C. ΔTm at 10 µM below it: 1 (yes). ΔTm at 10 µM at it or above: 0 (no).

For orientation, consider the following solved cases.
| molecule | answer.label |
| --- | --- |
| O=C(O)c1ccc(-c2c[nH]c3ncc(-c4ccccc4)cc23)cc1C1CCCC1 [GSK650394] | 1 (yes) |
| Cc1cc(CN2CCN(c3c(Br)cnc4nc(-c5ccc(N6CCN(C)CC6)cc5)[nH]c34)CC2)no1 [CCT137690] | 0 (no) |
| CCNC(=O)Nc1ccc(-c2nc3c(c(N4CCOC[C@@H]4C)n2)CCN(C2COC2)C3)cc1 [GDC-0349] | 0 (no) |

## Input Lab log: compare recorded ΔTm at 10 µM with -0.9 °C; is it strictly lower for COc1ccc(Cl)c(Nc2nc3ccccc3nc2NS(=O)(=O)c2cccc(NC(=O)C(C)(C)N)c2)c1 [XL147] ?
## Output 0 (no)

----------
tgt: ZmDRIK1-K217-P492 (Zea mays)
Construct: kinase domain, K217-P492
assay.overview: biochemical
run.conditions: read-out: dTm B, sheet ZmDRIK1-K217-P492;; DSF, Boltzmann fit, 0.1% DMSO
property.label: ΔTm at 10 µM (°C)
Respond numerically; units are °C and should not be typed.

Example entries and their recorded answers appear below.
| molecule | tgt | ΔTm at 10 µM / °C |
| --- | --- | --- |
| OCCn1cc(-c2cnc3nnn(Cc4ccc5ncccc5c4)c3n2)cn1 [PF-04217903] | ZmDRIK1-K217-P492 (Zea mays) | -0.909 |
| O=c1ncn2nc(Sc3ccc(F)cc3F)ccc2c1-c1c(Cl)cccc1Cl [VX-745] | ZmDRIK1-K217-P492 (Zea mays) | -1.03 |

## Input Checklist item: ΔTm at 10 µM tested on ZmDRIK1-K217-P492 (Zea mays), entry Cc1[nH]nc2ccc(-c3cncc(OC[C@@H](N)Cc4ccccc4)c3)cc12 [A-674563] , value?
## Output -0.898

----------
Each item that follows carries a reported ΔTm at 10 µM.
tgt: ZmDRIK1-K217-S514 (Zea mays, UniProt C0P4K9)
Construct: kinase domain, K217-S514
Sequence (C0P4K9 1-514): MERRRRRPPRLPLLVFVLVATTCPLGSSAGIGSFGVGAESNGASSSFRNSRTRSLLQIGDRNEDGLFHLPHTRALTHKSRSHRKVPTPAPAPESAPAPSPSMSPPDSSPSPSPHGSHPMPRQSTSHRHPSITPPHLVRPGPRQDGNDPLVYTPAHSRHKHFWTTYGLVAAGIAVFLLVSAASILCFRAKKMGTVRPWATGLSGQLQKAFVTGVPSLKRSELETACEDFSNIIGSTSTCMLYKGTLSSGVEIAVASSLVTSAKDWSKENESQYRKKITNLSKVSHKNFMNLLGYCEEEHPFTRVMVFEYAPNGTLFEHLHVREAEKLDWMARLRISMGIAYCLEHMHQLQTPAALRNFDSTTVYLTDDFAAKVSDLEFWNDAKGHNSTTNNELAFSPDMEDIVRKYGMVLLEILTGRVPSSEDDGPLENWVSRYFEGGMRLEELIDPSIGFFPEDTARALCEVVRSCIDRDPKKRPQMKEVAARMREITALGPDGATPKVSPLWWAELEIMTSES
assay.overview: biochemical
run.conditions: read-out: dTm B, sheet ZmDRIK1-K217-S514;; DSF, Boltzmann fit, 0.1% DMSO
Structures can show the parent of a compound that is named as a salt.
Respond numerically; units are °C and should not be typed.

Example entries and their recorded answers appear below.
| compound | ΔTm at 10 µM, °C |
| --- | --- |
| CN1CC[C@H](c2c(O)cc(O)c3c(=O)cc(-c4ccccc4Cl)oc23)[C@H](O)C1 [Flavopiridol HCl] | -0.391 |
| O=C(Nc1ccc(-c2ccnc(Nc3ccc(N4CCOCC4)cc3)n2)cc1)C1CCCN1 (stereo not drawn) [XL019] | -0.368 |
| Cn1cc(C2=C(c3ccc(Cl)cc3Cl)C(=O)NC2=O)c2ccccc21 [SB216763] | -0.35 |
| O=C1NC(=O)/C(=C/c2ccc(-c3ccc(F)cc3O)o2)S1 [AS-252424] | 1.39 |
| N#Cc1ccc2[nH]c(O)c(-c3ccc(CN4CCOCC4)cn3)c2c1 [AZD1080] | -0.298 |

## Input Checklist item: ΔTm at 10 µM tested on ZmDRIK1-K217-S514 (Zea mays, UniProt C0P4K9), entry COc1cc2ncnc(Nc3ccc(O)c(Br)c3)c2cc1OC [WHI-P154] , value?
## Output 2.03

----------
tgt: ZmDRIK1-K217-S514 (Zea mays)
Construct: kinase domain, K217-S514
Sequence (C0P4K9 1-514): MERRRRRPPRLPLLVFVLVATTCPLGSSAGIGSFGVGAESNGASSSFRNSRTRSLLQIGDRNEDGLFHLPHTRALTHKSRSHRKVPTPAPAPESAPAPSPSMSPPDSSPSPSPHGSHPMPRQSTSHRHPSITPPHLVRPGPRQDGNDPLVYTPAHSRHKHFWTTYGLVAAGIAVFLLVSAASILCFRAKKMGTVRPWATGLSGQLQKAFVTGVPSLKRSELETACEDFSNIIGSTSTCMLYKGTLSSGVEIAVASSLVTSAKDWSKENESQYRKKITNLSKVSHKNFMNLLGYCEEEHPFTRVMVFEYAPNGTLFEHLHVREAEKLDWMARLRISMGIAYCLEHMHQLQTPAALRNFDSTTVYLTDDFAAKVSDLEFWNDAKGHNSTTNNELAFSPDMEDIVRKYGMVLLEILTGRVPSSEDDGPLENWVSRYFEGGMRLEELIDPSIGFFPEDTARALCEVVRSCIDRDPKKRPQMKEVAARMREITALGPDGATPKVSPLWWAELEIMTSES
assay.overview: biochemical
run.conditions: read-out: dTm B, sheet ZmDRIK1-K217-S514;; DSF, Boltzmann fit, 0.1% DMSO
Counter-ions that a name gives are not always drawn.
Returns Condition met if the recorded ΔTm at 10 µM is greater than or equal to -0.4 °C, and Condition not met otherwise.

| compound | answer.label |
| --- | --- |
| N#Cc1c(O)c2c(-c3ccc(-c4ccccc4O)cc3)csc2[nH]c1=O [A-769662] | Condition not met |
| N#CCNC(=O)c1ccc(-c2ccnc(Nc3ccc(N4CCOCC4)cc3)n2)cc1 [CYT387] | Condition met |
| N=C(N)NC(=N)NCCc1ccccc1 [Phenformin HCl] | Condition not met |
| O=C(O)[C@]1(Cc2cccc(Nc3nccs3)n2)CC[C@@H](Oc2cccc(Cl)c2F)CC1 [MK-5108 (VX-689)] | Condition met |
| C[C@H](Nc1ncnc2nc[nH]c12)c1cc2cccc(Cl)c2c(=O)n1-c1ccccc1 [IPI-145 (INK1197)] | Condition met |
| O=C(NC[C@H](O)CO)c1ccncc1Nc1ccc(I)cc1F [Pimasertib (AS-703026)] | Condition not met |

## Input Determine whether measured ΔTm at 10 µM meets or exceeds -0.4 °C for CCc1ccc(C=C2SC(=S)NC2=O)cc1 [10058-F4]
## Output Condition met

## Input Determine whether measured ΔTm at 10 µM meets or exceeds -0.4 °C for Cc1cnc(Nc2ccc(N3CCN(C)CC3)cc2)nc1Nc1cccc(S(=O)(=O)NC(C)(C)C)c1 [TG101209]
## Output Condition met

## Input Determine whether measured ΔTm at 10 µM meets or exceeds -0.4 °C for Cc1[nH]nc2ccc(-c3cncc(OC[C@@H](N)Cc4ccccc4)c3)cc12 [A-674563]
## Output Condition met

## Input Determine whether measured ΔTm at 10 µM meets or exceeds -0.4 °C for COc1cc2nccc(Oc3ccc(NC(=O)NC4CC4)c(Cl)c3)c2cc1C(N)=O [Lenvatinib (E7080)]
## Output Condition met
